Data provenance: patent US20240409573A1

test system: HL60 cells, CD33-target expressing; experiment: In vitro cell assay, cell viability by MTS, HL60; type: cell-based; details: Homo sapiens, HL-60, 96 h, read-out: Average IC50, HL-60
pIC50: −log10 of the molar value.
Hi, to clarify the labels: Fulfilled covers pIC50 from 10 upward, Not fulfilled covers anything below 10.

CCN(C(=O)Nc1ccc(CNC(=O)OCC2c3ccccc3-c3ccccc32)cc1)[C@H]1CO[C@@H](O[C@H]2[C@H](O[C@H]3C#C/C=C\C#C[C@]4(O)CC(=O)C(NC(=O)OC)=C3/C4=C\CSSC(C)(C)C)O[C@H](C)[C@@H](NO[C@H]3C[C@H](O)[C@H](SC(=O)c4c(C)c(I)c(O[C@@H]5O[C@@H](C)[C@H](O)[C@@H](OC)[C@H]5O)c(OC)c4OC)[C@@H](C)O3)[C@@H]2O)C[C@@H]1OC    Fulfilled

Record CCN(CC(=O)O)[C@H]1CO[C@@H](O[C@H]2[C@H](O[C@H]3C#C/C=C\C#C[C@]4(O)CC(=O)C(NC(=O)OC)=C3/C4=C\CSSC(C)C)O[C@H](C)[C@@H](NO[C@H]3C[C@H](O)[C@H](SC(=O)c4c(C)c(I)c(O[C@@H]5O[C@@H](C)[C@H](O)[C@@H](OC)[C@H]5O)c(OC)c4OC)[C@@H](C)O3)[C@@H]2O)C[C@@H]1OC ; criterion: pIC50 no lower than 10. Met?
Not fulfilled

Assess whether reported pIC50 for CCN[C@H]1CO[C@@H](O[C@H]2[C@H](O[C@H]3C#C/C=C\C#C[C@]4(O)CC(=O)C(NC(=O)OC)=C3/C4=C\CSSC(C)(C)CC(=O)N(C)C)O[C@H](C)[C@@H](NO[C@H]3C[C@H](O)[C@H](SC(=O)c4c(C)c(I)c(O[C@@H]5O[C@@H](C)[C@H](O)[C@@H](OC)[C@H]5O)c(OC)c4OC)[C@@H](C)O3)[C@@H]2O)C[C@@H]1OC sits at 10 or higher.
Fulfilled

Reported pIC50 reaches at least 10 for CCN[C@H]1CO[C@@H](O[C@H]2[C@H](O[C@H]3C#C/C=C\C#C[C@]4(O)CC(=O)C(NC(=O)OC)=C3/C4=C\CSSC(C)(C)c3ccc(N)cc3)O[C@H](C)[C@@H](NO[C@H]3C[C@H](O)[C@H](SC(=O)c4c(C)c(I)c(O[C@@H]5O[C@@H](C)[C@H](O)[C@@H](OC)[C@H]5O)c(OC)c4OC)[C@@H](C)O3)[C@@H]2O)C[C@@H]1OC ?
Fulfilled

Check if pIC50 >= 10 (inclusive). Item: CCN[C@H]1CO[C@@H](O[C@@H]2C(O)[C@H](NO[C@H]3C[C@H](O)[C@H](SC(=O)c4c(C)c(I)c(O[C@@H]5O[C@@H](C)[C@H](O)[C@@H](OC)[C@H]5O)c(OC)c4OC)[C@@H](C)O3)[C@@H](C)O[C@H]2O[C@H]2C#C/C=C\C#C[C@]3(O)CC(=O)C(NC(=O)OC)=C2/C3=C\CSSC(C)(C)CCC(=O)NCCCC[C@H](N)C(=O)O)C[C@@H]1OC (stereo in doubt)
Not fulfilled

Confirm if pIC50 reported for the compound CCN[C@H]1CO[C@@H](O[C@H]2[C@H](O[C@H]3C#C/C=C\C#C[C@]4(O)CC(=O)C(NC(=O)OC)=C3/C4=C\CSSC(C)(C)c3cccnc3N)O[C@H](C)[C@@H](NO[C@H]3C[C@H](O)[C@H](SC(=O)c4c(C)c(I)c(O[C@@H]5O[C@@H](C)[C@H](O)[C@@H](OC)[C@H]5O)c(OC)c4OC)[C@@H](C)O3)[C@@H]2O)C[C@@H]1OC is 10 or above.
Fulfilled

In plain terms: is recorded pIC50 at least 10 for CCN[C@H]1CO[C@@H](O[C@H]2[C@H](O[C@H]3C#C/C=C\C#C[C@]4(O)CC(=O)C(NC(=O)OC)=C3/C4=C\CSSC(C)C)O[C@H](C)[C@@H](NO[C@H]3C[C@H](O)[C@H](SC(=O)c4c(C)c(I)c(O[C@@H]5O[C@@H](C)[C@H](O)[C@@H](OC)[C@H]5O)c(OC)c4OC)[C@@H](C)O3)[C@@H]2O)C[C@@H]1OC [Example P1] ?
Fulfilled

Say whether CCN[C@H]1CO[C@@H](O[C@H]2[C@H](O[C@H]3C#C/C=C\C#C[C@]4(O)CC(=O)C(NC(=O)OC)=C3/C4=C\CSSc3ccc(C(=O)O)cc3)O[C@H](C)[C@@H](NO[C@H]3C[C@H](O)[C@H](SC(=O)c4c(C)c(I)c(O[C@@H]5O[C@@H](C)[C@H](O)[C@@H](OC)[C@H]5O)c(OC)c4OC)[C@@H](C)O3)[C@@H]2O)C[C@@H]1OC shows pIC50 of 10 or more.
Fulfilled

Test whether the compound CCN[C@H]1CO[C@@H](O[C@H]2[C@H](O[C@H]3C#C/C=C\C#C[C@]4(O)CC(=O)C(NC(=O)OC)=C3/C4=C\CSSC(C)C(=O)OCC)O[C@H](C)[C@@H](NO[C@H]3C[C@H](O)[C@H](SC(=O)c4c(C)c(I)c(O[C@@H]5O[C@@H](C)[C@H](O)[C@@H](OC)[C@H]5O)c(OC)c4OC)[C@@H](C)O3)[C@@H]2O)C[C@@H]1OC (some centres unmarked) records pIC50 of 10 or higher.
Fulfilled

---

system: Raji cells, CD33-non-expressing; assay: In vitro cell assay, cell viability by MTS, Raji; type: cell-based; details: Homo sapiens, 96 h, read-out: Average IC50, Raji
pIC50: −log10 of the molar value.
Given measured pIC50, output t if it is greater than or equal to 10 and f if not.

As a guide, the following entries are already answered.
CCN[C@H]1CO[C@@H](O[C@H]2[C@H](O[C@H]3C#C/C=C\C#C[C@]4(O)CC(=O)C(NC(=O)OC)=C3/C4=C\CSSC(CC(=O)O)C(=O)O)O[C@H](C)[C@@H](NO[C@H]3C[C@H](O)[C@H](SC(=O)c4c(C)c(I)c(O[C@@H]5O[C@@H](C)[C@H](O)[C@@H](OC)[C@H]5O)c(OC)c4OC)[C@@H](C)O3)[C@@H]2O)C[C@@H]1OC (stereo partly drawn) [Example P6]    f
CCN[C@H]1CO[C@@H](O[C@H]2[C@H](O[C@H]3C#C/C=C\C#C[C@]4(O)CC(=O)C(NC(=O)OC)=C3/C4=C\CSSC(C)(C)c3ccc(C(=O)O)cc3)O[C@H](C)[C@@H](NO[C@H]3C[C@H](O)[C@H](SC(=O)c4c(C)c(I)c(O[C@@H]5O[C@@H](C)[C@H](O)[C@@H](OC)[C@H]5O)c(OC)c4OC)[C@@H](C)O3)[C@@H]2O)C[C@@H]1OC [Example P29]    t
CCN[C@H]1CO[C@@H](O[C@H]2[C@H](O[C@H]3C#C/C=C\C#C[C@]4(O)CC(=O)C(NC(=O)OC)=C3/C4=C\CSSC(C)C(=O)OCC)O[C@H](C)[C@@H](NO[C@H]3C[C@H](O)[C@H](SC(=O)c4c(C)c(I)c(O[C@@H]5O[C@@H](C)[C@H](O)[C@@H](OC)[C@H]5O)c(OC)c4OC)[C@@H](C)O3)[C@@H]2O)C[C@@H]1OC (stereo partly drawn) [Example P11]    t
CCN[C@H]1CO[C@@H](O[C@@H]2C(O)[C@H](NO[C@H]3C[C@H](O)[C@H](SC(=O)c4c(C)c(I)c(O[C@@H]5O[C@@H](C)[C@H](O)[C@@H](OC)[C@H]5O)c(OC)c4OC)[C@@H](C)O3)[C@@H](C)O[C@H]2O[C@H]2C#C/C=C\C#C[C@]3(O)CC(=O)C(NC(=O)OC)=C2/C3=C\CSSC(C)(C)CCC(=O)NCCCC[C@H](N)C(=O)O)C[C@@H]1OC (stereo in doubt) [Example P43]    f

Now for a further compound.
Is the recorded value of pIC50 equal to or greater than 10 for this compound? CCN(CC(=O)O)[C@H]1CO[C@@H](O[C@H]2[C@H](O[C@H]3C#C/C=C\C#C[C@]4(O)CC(=O)C(NC(=O)OC)=C3/C4=C\CSSC(C)C)O[C@H](C)[C@@H](NO[C@H]3C[C@H](O)[C@H](SC(=O)c4c(C)c(I)c(O[C@@H]5O[C@@H](C)[C@H](O)[C@@H](OC)[C@H]5O)c(OC)c4OC)[C@@H](C)O3)[C@@H]2O)C[C@@H]1OC [Example P50]
f

---

system: Raji cells, CD33-non-expressing; test: In vitro cell assay, cell viability by MTS, Raji; format: cell-based; conditions: Homo sapiens, 96 h, read-out: Average IC50, Raji
READOUT LABEL: log10 of IC50 (log10 of the value in nM)
Transform log10 | Measure IC50 | Unit nM

Guide cases for log10 of IC50, answers given:
CCN[C@H]1CO[C@@H](O[C@H]2[C@H](O[C@H]3C#C/C=C\C#C[C@]4(O)CC(=O)C(NC(=O)OC)=C3/C4=C\CSSC(C)(C)c3cccnc3N)O[C@H](C)[C@@H](NO[C@H]3C[C@H](O)[C@H](SC(=O)c4c(C)c(I)c(O[C@@H]5O[C@@H](C)[C@H](O)[C@@H](OC)[C@H]5O)c(OC)c4OC)[C@@H](C)O3)[C@@H]2O)C[C@@H]1OC    -2.40
CCN[C@H]1CO[C@@H](O[C@H]2[C@H](O[C@H]3C#C/C=C\C#C[C@]4(O)CC(=O)C(NC(=O)OC)=C3/C4=C\CSSc3ccccc3C(=O)O)O[C@H](C)[C@@H](NO[C@H]3C[C@H](O)[C@H](SC(=O)c4c(C)c(I)c(O[C@@H]5O[C@@H](C)[C@H](O)[C@@H](OC)[C@H]5O)c(OC)c4OC)[C@@H](C)O3)[C@@H]2O)C[C@@H]1OC    -0.42
CCN[C@H]1CO[C@@H](O[C@H]2[C@H](O[C@H]3C#C/C=C\C#C[C@]4(O)CC(=O)C(NC(=O)OC)=C3/C4=C\CSSC(C)(C)CC(N)=O)O[C@H](C)[C@@H](NO[C@H]3C[C@H](O)[C@H](SC(=O)c4c(C)c(I)c(O[C@@H]5O[C@@H](C)[C@H](O)[C@@H](OC)[C@H]5O)c(OC)c4OC)[C@@H](C)O3)[C@@H]2O)C[C@@H]1OC    -1.52
CCN[C@H]1CO[C@@H](O[C@H]2[C@H](O[C@H]3C#C/C=C\C#C[C@]4(O)CC(=O)C(NC(=O)OC)=C3/C4=C\CSSc3ccccc3)O[C@H](C)[C@@H](NO[C@H]3C[C@H](O)[C@H](SC(=O)c4c(C)c(I)c(O[C@@H]5O[C@@H](C)[C@H](O)[C@@H](OC)[C@H]5O)c(OC)c4OC)[C@@H](C)O3)[C@@H]2O)C[C@@H]1OC    -2.30
CCN[C@H]1CO[C@@H](O[C@@H]2C(O)[C@H](NO[C@H]3C[C@H](O)[C@H](SC(=O)c4c(C)c(I)c(O[C@@H]5O[C@@H](C)[C@H](O)[C@@H](OC)[C@H]5O)c(OC)c4OC)[C@@H](C)O3)[C@@H](C)O[C@H]2O[C@H]2C#C/C=C\C#C[C@]3(O)CC(=O)C(NC(=O)OC)=C2/C3=C\CSSc2ccncc2)C[C@@H]1OC (stereo in doubt)    -0.77

Read the next record carefully.
Just so you know, measured log10 of IC50 for CCN(C(=O)Nc1ccc(CNC(=O)OCC2c3ccccc3-c3ccccc32)cc1)[C@H]1CO[C@@H](O[C@H]2[C@H](O[C@H]3C#C/C=C\C#C[C@]4(O)CC(=O)C(NC(=O)OC)=C3/C4=C\CSSC(C)(C)C)O[C@H](C)[C@@H](NO[C@H]3C[C@H](O)[C@H](SC(=O)c4c(C)c(I)c(O[C@@H]5O[C@@H](C)[C@H](O)[C@@H](OC)[C@H]5O)c(OC)c4OC)[C@@H](C)O3)[C@@H]2O)C[C@@H]1OC came out at -2.70
